assay: AUC in C57BL/6 mouse plasma at 10 mg/kg, po or 2 mg/kg, iv; format: ADME, organism-based, C57BL6
READOUT KIND: AUC (µM·h)
Please state the figure in µM·h; there is no need to write the unit.

Exercise: Can you share its AUC? I mean this compound: CS(=O)(=O)c1ccc2nc(-c3ccc(-c4ccccc4F)cc3)[nH]c2c1
Solution: 8

---

test: Half life in Beagle dog at 2 mg/kg, po or 0.5 mg/kg, iv; type: ADME, organism-based, Canis lupus familiaris; settings: in vivo
READOUT KIND: half-life (h)
Please state the figure in h; there is no need to write the unit.

Exercise: Can you share its half-life? I mean this molecule: CS(=O)(=O)c1ccc2nc(-c3ccc(-c4ccccc4F)cc3)[nH]c2c1
Solution: 1.1

---

So I've got a bunch of compounds here, and I need their IC50 values.
Please state the figure in nM; there is no need to write the unit.

Exercise: # query: IC50 | item Cc1ccsc1-c1ccc(-c2nc3ccc(S(C)(=O)=O)cc3[nH]2)cc1 | system: UniProtKB P07308
Solution: 472

Exercise: # query: IC50 | item O=S(=O)(c1ccc2nc(-c3ccc(-c4ccccc4F)cc3)[nH]c2c1)C1CC1 | system: UniProtKB P07308
Solution: 401

Exercise: # query: IC50 | item Cn1c(-c2ccc(-c3ccccc3F)nc2)nc2cc(S(C)(=O)=O)ccc21 | system: UniProtKB P07308
Solution: 2490

Exercise: # query: IC50 | item Cc1ccccc1-c1ccc(-c2nc3ccc(S(C)(=O)=O)cc3[nH]2)cc1 | system: UniProtKB P07308
Solution: 3860

Exercise: # query: IC50 | item CS(=O)(=O)c1ccc2nc(-c3cnc(-c4ccccc4)nc3)[nH]c2c1 | system: UniProtKB P07308
Solution: 489

Exercise: # query: IC50 | item CS(=O)(=O)c1cnc2nc(-c3ccc(-c4ccccc4F)cc3)[nH]c2c1 | system: UniProtKB P07308
Solution: 156

Exercise: # query: IC50 | item CN(C)S(=O)(=O)c1ccc2nc(-c3ccc(-c4ccccc4F)cc3)[nH]c2c1 | system: UniProtKB P07308
Solution: 528

These measurements were taken from ChEMBL document CHEMBL1268980.
